target: T1, recombinant human GPC3 protein (human, UniProt P51654 25-563); experiment: BLI (Octet), antibody on Protein A probe
T1 construct: also called human GPC3 full-length protein; recombinant GPC3 protein
readoutKind: koff (s⁻¹)

binder="19F1 (antibody, V domains shown, Chimeric human IgG1) VH: QVQLQQSGAELVRPGASVKLSCKALGYTFADYEIHWVKQTPVHGLEWIGAIHPGSGGTAYNQTFEGKATLTADKSSTTAYMELSSLTSEDSAVYYCTRYYSFAYWGQGTLVTVSA VL: DVLMTQTPLSLPVSLGDQASISCRSSQSLVHSNGNTYLHWYLQKPGQSPKLLIYKVSNRFSGVPDRFSGSGSGTDFTLKISRVEAEDLGVYFCSQSTHIPTFGGGTKLELK" readoutkind=koff observedvalue=0.00213
binder="46C3 (antibody, V domains shown, Chimeric human IgG1) VH: QVQLQQSGPELVKPGASVKISCKASGYTFTDYYINWVKQKPGQGLEWIGWIYPGSGNTKYNEKFKGKATLTVDTSSSTAYMQLSSLTSEDTAVYFCARGRWGQGTLVTVSA VL: DVVMTQTPLSLPVSLRDQASISCRSSQSLVHSNGNTYLHWYLQKPGQSPKLLIYKVSNRFSGVPDRFSGSGSGTDFTLKISRVEAEDLGVYFCSQSTHVPRTFGGGTKLELK" readoutkind=koff observedvalue=0.00154
binder="39G4 (antibody, V domains shown, Chimeric human IgG1) VH: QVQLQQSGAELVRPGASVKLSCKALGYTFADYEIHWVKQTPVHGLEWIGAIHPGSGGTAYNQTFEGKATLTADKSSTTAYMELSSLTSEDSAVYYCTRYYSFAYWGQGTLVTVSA VL: DVVVTQTPLSLPVSLGDQASISCRSSQSLVHSNGNTYLHWYLQKPGQSPKLLIYKVSNRFSGVPDRFSGSGSGTDFTLKISRVEAEDLGVYFCSQSTHVPTFGGGTKLEIK" readoutkind=koff observedvalue=0.00208
binder="30B7 (antibody, V domains shown, Chimeric human IgG1) VH: QVQLQQSGAELVRPGASVRLSCKALGYTFTDYEMHWVKQTPVHGLEWIGAIHPGSGGTAYNQKFKGKATLTADKSSSTAYMELSSLTSEDSAVYYCTRYYSFAYWGQGTLVTVSA VL: DVLMTQTPLSLPVSLGDQASISCRSSQSLVHSNGNTYLHWYLQKPGQSPKLLIYKVSNRFSGVPDRFSGSGSGTDFTLKISRVEAEDLGVYFCSQSTHVPLTFGAGTKLEIK" readoutkind=koff observedvalue=0.000783
binder="30A4 (antibody, V domains shown, Chimeric human IgG1) VH: QVQLQQSGAELVRPGASVKLSCKALGYAFADYEIHWVKQTPVHGLEWIGAIHPGSGGTAYNQTFKGKATLTADKSSTTAYMELSSLTSEDSAVYYCTRYYSFAYWGQGTLVTVSA VL: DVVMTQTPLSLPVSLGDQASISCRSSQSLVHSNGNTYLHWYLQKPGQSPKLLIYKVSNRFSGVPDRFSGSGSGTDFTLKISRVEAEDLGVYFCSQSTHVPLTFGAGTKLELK" readoutkind=koff observedvalue=0.00258
